From: patent US7851508B2

Test system: human adult liver epithelial cells (THLE-3)
Test: In vitro toxicity evaluation, Sulforhodamine B
Assay type: cell-based
Conditions: ratio THLE-3 vs D6
Source text: For in vitro toxicological studies, the following cell line was chosen: human adult liver epithelial cells (THLE-3). […] Human adult liver epithelial cells (THLE-3) was maintained in tissue culture flasks in Waymouth's medium (Gibco, N.Y.) supplemented with 10% fetal bovine serum. […] A Spectra MAX Plus Microtiter Plate Reader (Molecular Devices, Menlo Park, Calif.) was used to measure the optical density at wavelengths of 490-530 nm.
Entries annotated with measured Selectivity, IC50 (THLE-3)/IC50 (D6)
Give the value as a plain number.

{"COMPOUND": "OC(c1cc(C(F)(F)F)nc2c(C(F)(F)F)cccc12)C1CCCCN1 (stereo not shown) [Mefloquine, reference compound]", "SYSTEM_UNDER_TEST": "human adult liver epithelial cells (THLE-3)", "Selectivity, IC50 (THLE-3)/IC50 (D6)": 794}

// returns reported Selectivity, IC50 (THLE-3)/IC50 (D6) for input CCN(CC)CCCC(C)Nc1ccnc2cc(Cl)ccc12 (stereo not shown) [Chloroquine, reference compound]
463
